Just for reference, patent US7659298B2 is where these values come from.

Target: human recombinant orexin-2 (hr-OX-2) receptor (Homo sapiens, UniProt O43614)
Sequence (O43614 1-444): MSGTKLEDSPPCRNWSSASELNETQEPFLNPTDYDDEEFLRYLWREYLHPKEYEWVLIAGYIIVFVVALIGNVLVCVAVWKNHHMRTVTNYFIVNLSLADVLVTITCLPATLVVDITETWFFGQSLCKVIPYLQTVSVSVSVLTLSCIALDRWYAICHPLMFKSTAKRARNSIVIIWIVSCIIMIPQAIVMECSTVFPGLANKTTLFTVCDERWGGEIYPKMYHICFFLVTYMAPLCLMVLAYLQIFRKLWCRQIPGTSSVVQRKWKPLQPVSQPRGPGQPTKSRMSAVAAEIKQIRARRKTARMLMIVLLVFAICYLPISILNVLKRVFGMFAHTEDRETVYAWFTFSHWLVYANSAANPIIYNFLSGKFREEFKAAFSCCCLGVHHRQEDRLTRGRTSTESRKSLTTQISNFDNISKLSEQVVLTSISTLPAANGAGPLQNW
Experiment: hr-125I-orexin-A radioligand competition binding, orexin-2 receptor
Settings: read-out: Orex-2 IC50
Provide the recorded IC50 for the entries that follow.
Write the value in nM as a bare number.

Reported IC50 for human recombinant orexin-2 (hr-OX-2) receptor (Homo sapiens, UniProt O43614), given `Cn1nc(-c2ccncc2)c(COc2ccccc2C(=O)Nc2cnc3ccccc3c2)c1Cl` ? 1100

Input `Cn1nc(-c2cccnc2)c(CCc2ccccc2C(=O)Nc2cnc3ccccc3c2)c1Cl` 680

Input `Cn1nc(-c2ccccc2)c(CSc2ccccc2C(=O)Nc2ccc3ccccc3c2)c1Cl` 156

====

Target: human recombinant orexin-1 (hr-OX-1) receptor (Homo sapiens, UniProt O43613)
Sequence (O43613 whole entry): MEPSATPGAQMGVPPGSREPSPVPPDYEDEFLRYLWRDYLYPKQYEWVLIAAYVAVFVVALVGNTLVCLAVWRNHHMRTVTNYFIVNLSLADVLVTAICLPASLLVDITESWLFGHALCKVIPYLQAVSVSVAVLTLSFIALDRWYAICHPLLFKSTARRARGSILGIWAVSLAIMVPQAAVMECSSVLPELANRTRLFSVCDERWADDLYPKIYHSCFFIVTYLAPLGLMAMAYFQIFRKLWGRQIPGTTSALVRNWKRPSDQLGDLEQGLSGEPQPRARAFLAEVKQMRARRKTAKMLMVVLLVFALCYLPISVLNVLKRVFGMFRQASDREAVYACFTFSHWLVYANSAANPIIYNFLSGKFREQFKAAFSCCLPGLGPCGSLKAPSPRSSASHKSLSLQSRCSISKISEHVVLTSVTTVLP
Experiment: hr-125I-orexin-A radioligand competition binding, orexin-1 receptor
Details: read-out: Orex-1 IC50
value.type: pIC50
Field pIC50 (float): negative decimal logarithm of the concentration in molar.

Suppose we examine the compound `Cn1nc(-c2ccncc2)c(COc2ccccc2C(=O)Nc2cnc3ccccc3c2)c1Cl` ; what pIC50 value has been reported? 7.29

Input `Cn1nc(-c2ccccc2)c(CSc2ccccc2C(=O)Nc2ccc3ccccc3c2)c1Cl` 7.48

Input `Cn1nc(-c2cccnc2)c(CCc2ccccc2C(=O)Nc2cnc3ccccc3c2)c1Cl` 7.24
